target: human properdin (human, UniProt P27918 28-469); experiment: cell-based or functional assay
Each entry below carries its reported IC50 (read off the curve).

Study these solved cases before continuing.
1) TPP-2223 (Anti-properdin control antibody without C1q binding domain) (antibody, human IgG1, kappa, V domains shown) VH: QVQLVQSGAEVKKPGASVKVSCKASGYIFTNYPIHWVRQAPGQGLEWMGFIDPGGGYDEPDERFRDRVTMTRDTSTSTVYMELSSLRSEDTAVYYCARRGGGYYLDYWGQGTLVTVSS VL: DIQMTQSPSSLSASVGDRVTITCRASQDISFFLNWYQQKPGKAPKLLIYYTSRYHSGVPSRFSGSGSGTDFTLTISSLQPEDFATYYCQHGNTLPWTFGQGTKVEIKR    ~9 nM
2) TPP-2221 (LVP058_hG2-G4, VHH on silent human Fc) (Fc fusion) LEVQLVESGGGLVQAGGSLRLSCAASGRISSIIHMAWYRQAPGKQRELVAEISRVGTTVYADSVKGRFTISRDDAKNTVTLQMNSLKPEDTAVYYCNALQYEKHGGADYWGQGTQVTVSSRKCCVECPPCPAPPVAGPSVFLFPPKPKDTLMISRTPEVTCVVVDVSQEDPEVQFNWYVDGVEVHNAKTKPREEQFNSTYRVVSVLTVLHQDWLNGKEYKCKVSNKGLPSSIEKTISKAKGQPREPQVYTLPPSQEEMTKNQVSLTCLVKGFYPSDIAVEWESNGQPENNYKTTPPVLDSDGSFFLYSRLTVDKSRWQEGNVFSCSVMHEALHNHYTQKSLSLSLGK    ~10 nM
3) TPP-2225 (anti-Albumin LVP058 (G4S)3 Linker) (bispecific antibody, Single chain: anti-albumin VHH, (G4S)3 linker, non-humanized anti-properdin VHH LVP058; also called anti-Alb-LVP058) EVQLVESGGGLVKPGGSLRLSCAASGRPVSNYAAAWFRQAPGKEREFVSAINWQKTATYADSVKGRFTISRDNAKNSLYLQMNSLRAEDTAVYYCAAVFRVVAPKTQYDYDYWGQGTLVTVSSGGGGSGGGGSGGGGSLEVQLVESGGGLVQAGGSLRLSCAASGRISSIIHMAWYRQAPGKQRELVAEISRVGTTVYADSVKGRFTISRDDAKNTVTLQMNSLKPEDTAVYYCNALQYEKHGGADYWGQGTQVTVSS    ~10 nM

What IC50 (read off the curve) value was documented for this binder, TPP-2224 (LVP058 (G4S)3-anti-Alb-tandem VHH) (bispecific antibody) LEVQLVESGGGLVQAGGSLRLSCAASGRISSIIHMAWYRQAPGKQRELVAEISRVGTTVYADSVKGRFTISRDDAKNTVTLQMNSLKPEDTAVYYCNALQYEKHGGADYWGQGTQVTVSSGGGGSGGGGSGGGGSEVQLVESGGGLVKPGGSLRLSCAASGRPVSNYAAAWFRQAPGKEREFVSAINWQKTATYADSVKGRFTISRDNAKNSLYLQMNSLRAEDTAVYYCAAVFRVVAPKTQYDYDYWGQGTLVTVSS ?
~20 nM
